Every entry's value here was drawn from patent US20210324054A1.

TESTED ON: Antigen DN-IV-Ag# (Fapon Biotech Inc.) (dengue virus)
PROTOCOL: indirect ELISA on coated DN-IV-Ag#, antibody diluted 3 times
MEASUREMENT LABEL: OD450 (reference 630 nm) (OD)

INSERT INTO assay_data (binder, measurement_label, recorded_value) VALUES
  ('Mutation 3 (antibody, V domains shown) VH: EVQLQQPGPELVKPGASVKMSCKASGYTLTSTVIHWVRQKPGQGLEWIGYMNKYNDGLKYNPKFIGKAILTSDKSSSTAYMQLSSLTSEDSAVYYCTKEGLFYVMDYWGQGTSVTVSS VL: QIVLTQSPAIMSASPGEKVTMTCSVTSSISYMHWYQQKSGTSPKRWIYDTSKLASCVPVRFSGSGSGTSYSLTISSMEAEDAATYFCQQWRSQLPTFGAGTKLELKR', 'OD450 (reference 630 nm)', 0.347),
  ('Mutation 1 (antibody, V domains shown) VH: EVQLQQPGPELVKPGASVKMSCKASGYTFTSTVIHWVRQKPGQGLEWIGYMNPYNDGLKYNEKFIGKAILTSDKSSSTAYMQLSSLTSEDSAVYYCTKEGLFYVMDYWGQGTSVTVSS VL: QIVLTQSPAIMSASPGEKVTMTCSATSSISYMHWYQQKSGTSPKRWIYDTSKLASGVPVRFSGSGSGTSYSLTISSMEAEDAATYFCQQWRSDLPTFGAGTKLELKR', 'OD450 (reference 630 nm)', 1.39),
  ('WT (recombinant anti-dengue virus NS1 7F8 antibody of Example 2) (antibody, mouse IgG1, kappa, V domains shown) VH: EVQLQQPGPELVKPGASVKMSCKASGYTVTSYVIHWVRQKPGQGLEWIGYMNAYNDGIKYNEKFIGKAILTSDKSSSTAYMQLSSLTSEDSAVYYCTKEGLFYVMDYWGQGTSVTVSS VL: QIVLTQSPAIMSASPGEKVTMTCSATSSISYMHWYQQKSGTSPKRWIYDTSKLASPVPVRFSGSGSGTSYSLTISSMEAEDAATYFCQYWRSDLPTFGAGTKLELKR', 'OD450 (reference 630 nm)', 1.18),
  ('Mutation 2 (antibody, V domains shown) VH: EVQLQQPGPELVKPGASVKMSCKASGYTFTSTVIHWVRQKPGQGLEWIGYMNGYNDGLKYNNKFIGKAILTSDKSSSTAYMQLSSLTSEDSAVYYCTKEGLFYVMDYWGQGTSVTVSS VL: QIVLTQSPAIMSASPGEKVTMTCSATSSISYMHWYQQKSGTSPKRWIYDTSKLASAVPVRFSGSGSGTSYSLTISSMEAEDAATYFCQQWRSDLPTFGAGTKLELKR', 'OD450 (reference 630 nm)', 1.48);
